Measured values drawn from patent US20210078972A1 for this set.

Below are compounds with their pIC50 as measured on AXL kinase (Homo sapiens, UniProt P30530).
Sequence (P30530 473-894 limits assumed): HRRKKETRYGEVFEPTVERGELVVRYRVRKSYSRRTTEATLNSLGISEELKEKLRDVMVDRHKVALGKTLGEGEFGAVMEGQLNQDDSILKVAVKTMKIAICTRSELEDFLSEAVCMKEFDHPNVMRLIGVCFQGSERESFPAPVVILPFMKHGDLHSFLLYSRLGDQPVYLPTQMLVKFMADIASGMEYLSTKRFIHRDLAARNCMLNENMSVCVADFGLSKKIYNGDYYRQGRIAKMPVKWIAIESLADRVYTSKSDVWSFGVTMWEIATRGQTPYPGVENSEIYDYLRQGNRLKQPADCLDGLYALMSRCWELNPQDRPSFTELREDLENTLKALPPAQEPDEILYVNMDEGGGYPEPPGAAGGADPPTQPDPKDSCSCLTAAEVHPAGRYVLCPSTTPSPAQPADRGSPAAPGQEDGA
The value called pIC50 is obtained by taking minus log10 of the concentration in mol/L.

[
  {
    "Compound": "COc1cc2c(Oc3ccc(NC(=O)c4c(C)n(C)c5ccc(OC(F)(F)F)cc5c4=O)cc3F)ncnc2cc1OCCCN1CCN(C)CC1 [TL-238]",
    "Target system": "AXL kinase (Homo sapiens, UniProt P30530)",
    "pIC50": 8.92
  },
  {
    "Compound": "COc1cc2c(Oc3ccc(NC(=O)c4c(C)n(C)c5ccc(OC(F)(F)F)cc5c4=O)cc3F)ncnc2cc1OCCN1CCCC1 [TL-231]",
    "Target system": "AXL kinase (Homo sapiens, UniProt P30530)",
    "pIC50": 8.64
  },
  {
    "Compound": "COCCCOc1cc2ncnc(Oc3ccc(NC(=O)c4c(C)n(C)c5ccc(OC(F)(F)F)cc5c4=O)cc3F)c2cc1OC [TL-226]",
    "Target system": "AXL kinase (Homo sapiens, UniProt P30530)",
    "pIC50": 8.33
  }
]

Qu. Observed pIC50 on AXL kinase (Homo sapiens, UniProt P30530) for COc1cc2c(Oc3ccc(NC(=O)c4c(C)n(C)c5ccc(OC(F)(F)F)cc5c4=O)cc3F)ncnc2cc1OCCCN1CCCCC1 [TL-216] , please.
Ans. 8.82
